This section presents molecules with their documented inhibition values.
Experiment: HepG2 cytotoxicity, primary screen, cytotoxicity control for P. falciparum antimalarial project, cell-based, ATP luminescence (AID 2303);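 further: 0% = DMSO wells and 100% = digitonin-killed cells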
Details: HepG2 viability, 24-48 h, at 10 µM, hits give high values
Expressed in %, but write only the number.

>  <molecule>
CN(c1ccc2c(c1)nc(NCc1ccccc1)n2C)c1ccnc(Nc2ccc(CS(C)(=O)=O)cc2)n1

>  <result_number>
61

$$$$
>  <molecule>
Fc1ccc2nc(-c3ccc(-c4ccc(CN5CCN(CCN6CCOCC6)CC5)cc4)s3)[nH]c2c1

>  <result_number>
39

$$$$

input: Which value of inhibition has been reported for O=C(NC1CCC(N2CCC(c3ccccc3C(F)(F)F)CC2)CC1)c1cc2ccccc2[nH]1 (configuration not stated) in the records?
output: 80

input: Which value of inhibition has been reported for Cc1cc2c(cc1C(F)(F)F)N(C(=O)Nc1ccc(C(=O)NCCN3CCCC3)cc1)CC2 in the records?
output: 10

input: Which value of inhibition has been reported for CCCCCC(C)NC[C@@H](O)[C@H](Cc1ccccc1)NC(=O)c1cc(NCC)cc(N2CCCCS2(=O)=O)c1 (some centres not stated) in the records?
output: 3

###

This section presents compounds with their documented inhibition values.
Molecular target: L-lactate dehydrogenase (Plasmodium falciparum (isolate CDC / Honduras))
Test: PfLDH activity inhibition – cell lysate, 3D7 strain, counter-screen for P. falciparum growth inhibition project (AID 2304);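 further: 0% = vehicle and 100% = reference inhibitor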
Conditions: P. falciparum 3D7 crude extract, LDH APAD/NBT absorbance; at 2 µM; hits give high values
Expressed in %, but write only the number.

>  <compound>
N#Cc1ccc(N2CCN(Cc3cccc(-c4ccc(-c5nc6ccc(C(F)(F)F)cc6[nH]5)cc4)c3)CC2)nc1

>  <readout_unit>
%

>  <inhibition>
-1

$$$$
>  <compound>
CC1CCNc2ccc(Cc3cnc(N)nc3N)cc21 (centres undefined)

>  <readout_unit>
%

>  <inhibition>
5

$$$$
>  <compound>
Cc1cccc2[nH]c(-c3ccc(-c4cccc(NC(=O)C(=O)c5cccn5C)c4)cc3)nc12

>  <readout_unit>
%

>  <inhibition>
3

$$$$
>  <compound>
Cc1ccc(O)cc1Nc1ccnc2cc(-c3cccc(CNCCS(C)(=O)=O)c3)ccc12

>  <readout_unit>
%

>  <inhibition>
2

$$$$
>  <compound>
Cc1nc(N)nc(N)c1-c1ccc(Cl)cc1

>  <readout_unit>
%

>  <inhibition>
-4

$$$$
>  <compound>
O=C(Nc1ccc(CN2CCOCC2)cc1)c1ccc(-c2ccc(Br)cc2)o1

>  <readout_unit>
%

>  <inhibition>
-2

$$$$
>  <compound>
Cc1ccc(S(=O)(=O)Nc2ccc(Nc3nccc(Nc4cccc5[nH]ncc45)n3)cc2)cc1

>  <readout_unit>
%

>  <inhibition>
6

$$$$
>  <compound>
COc1ccc(C2C(C(=O)OC3CCCCC3)=C(C)NC3=C2C(=O)CCC3)cc1Br (centres undefined)

>  <readout_unit>
%

>  <inhibition>
-7

$$$$
>  <compound>
CN(C)CCN(C)C(=O)c1cc(-c2ccncc2)c(-c2ccc(Cl)c(O)c2)o1

>  <readout_unit>
%

>  <inhibition>
0

$$$$
>  <compound>
c1ccc2c(CNCCCN3CCN(CCCNCc4c5ccccc5cc5ccccc45)CC3)c3ccccc3cc2c1

>  <readout_unit>
%

>  <inhibition>
0

$$$$

input: Which value of inhibition has been reported for FC(F)(F)c1cccc(NC(=S)NN=Cc2ccccn2)c1 in the records?
output: -7

input: Which value of inhibition has been reported for COc1cc(OC)cc(C(=O)Nc2nc(-c3ccc(NC(=O)c4ccccc4)cc3)cs2)c1 in the records?
output: -1

input: Which value of inhibition has been reported for Cc1ccc(Cn2ccc3c4c(N)nc(N)nc4ccc32)cc1 in the records?
output: -6

input: Which value of inhibition has been reported for C[C@H]1CN(Cc2ccc(-c3cccc(CNC(=O)c4cccc(C(=O)c5ccc(Cl)c(Cl)c5)c4)c3)s2)CCN1 in the records?
output: 3

input: Which value of inhibition has been reported for CC(C)(CNC(=O)C1CCN(CCOc2ccc(F)c(F)c2)CC1)c1nc(-c2ccc(Cl)c(O)c2)c(-c2ccncc2)[nH]1 in the records?
output: -1

input: Which value of inhibition has been reported for Cc1cc(OCCCNc2nc(NCCc3ccc(O)cc3)nc(N3CCNCC3)n2)c(Cl)c(C)c1Cl in the records?
output: 5

input: Which value of inhibition has been reported for CS(=O)(=O)Cc1ccc(Nc2nccc(-c3c(-c4cccc(NC(=O)c5c(F)cccc5F)c4)nn4ccccc34)n2)cc1 in the records?
output: 0
